The following compounds are listed with their measured inhibition at 50 µM values.
Molecular target: α-synuclein seeded by E. coli CsgA (Homo sapiens, UniProt P37840)
Construct: the full-length gene for untagged human α-synuclein was inserted; made in house; host or cells: α-synuclein: E. coli BL21 (DE3); CsgA: E. coli NEB 3016 slyD::kan
Experiment: Thioflavin T cell-free assay of CsgA-seeded α-synuclein aggregation
Format: biochemical
Details: read-out: Inhibition of Aggregation, CsgA-seeded αSyn

Past entries and their recorded results:
MOL_SMILES	inhibition at 50 µM
O=C(Nc1sc2c(c1C(=O)Nc1cc(O)cc(O)c1)CCCC2)c1cc(O)c(O)c(O)c1	> 90%
O=C(Nc1ccccc1)c1c[nH]c2cc(O)cc(O)c2c1=O	79%
COc1cc(OC(=O)c2c[nH]c3cc(OC)c(OC)c(OC)c3c2=O)cc(OC)c1OC	-22%
CN(C(=O)c1c[nH]c2cc(O)cc(O)c2c1=O)c1cc(O)c(O)c(O)c1	> 90%
O=C(Nc1cc(O)c(O)c(O)c1)c1c(-c2cc(O)c(O)c(O)c2)[nH]c2cc(O)c(O)c(O)c2c1=O	> 90%

Kindly review the next compound as well.
Entry "COc1cc2[nH]cc(C(=O)Nc3cccc(O)c3)c(=O)c2c(OC)c1OC" ; inhibition at 50 µM = < -50%

###

In this section we review reported inhibition at 50 µM values for a set of compounds.
Target: α-synuclein seeded by E. coli CsgA (Homo sapiens)
Construct: the full-length gene for untagged human α-synuclein was inserted; made in house; host or cells: α-synuclein: E. coli BL21 (DE3); CsgA: E. coli NEB 3016 slyD::kan
Assay: Thioflavin T cell-free assay of CsgA-seeded α-synuclein aggregation
Assay type: biochemical
Details: read-out: Inhibition of Aggregation, CsgA-seeded αSyn
Give a bare numeral; the unit % is implied.

Sample records with inhibition at 50 µM:
MOL_SMILES	UNIT_TEXT	MEASURED_RESULT
COc1cc(NC(=O)c2c(N)sc3c2CCCC3)cc(OC)c1OC	%	74
O=C(Nc1sc2c(c1C(=O)Nc1cc(O)c(O)c(O)c1)CCCC2)c1cc(O)c(O)c(O)c1	%	63

Measured inhibition at 50 µM (α-synuclein seeded by E. coli CsgA (Homo sapiens)), entry "O=C(Nc1cc(O)c(O)c(O)c1)c1c[nH]c2cc(O)c(O)c(O)c2c1=O" : 11

Considering "COc1cc(NC(=O)c2c[nH]c3cc(OC)c(OC)c(OC)c3c2=O)cc(OC)c1OC" , its inhibition at 50 µM with α-synuclein seeded by E. coli CsgA (Homo sapiens) was recorded as 14

For "COc1cc(OC)c2c(=O)c(C(=O)Oc3cc(OC)c(OC)c(OC)c3)c[nH]c2c1" on α-synuclein seeded by E. coli CsgA (Homo sapiens), measured inhibition at 50 µM was -27

###

inhibition at 20 µM values by entry
Molecular target: E. coli CsgA (Escherichia coli, UniProt P28307)
Construct: 6xHis (C); made in house; host or cells: E. coli NEB 3016 slyD::kan
Sequence (P28307 23-151): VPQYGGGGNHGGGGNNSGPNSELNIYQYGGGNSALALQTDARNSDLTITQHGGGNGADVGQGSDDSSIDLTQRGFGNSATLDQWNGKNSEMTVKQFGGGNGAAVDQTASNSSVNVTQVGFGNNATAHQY
Experiment: Thioflavin T cell-free assay of CsgA aggregation
Format: biochemical
Settings: read-out: Inhibition of Aggregation, CsgA
Report the figure along with its unit, number first.

Previously resolved entries follow.
MOLECULE	inhibition at 20 µM
O=C(Nc1sc2c(c1C(=O)Nc1cc(O)c(O)c(O)c1)CCCC2)c1cc(O)cc(O)c1 [Compound 4]	43%
COc1cc2[nH]cc(C(=O)Nc3ccc(O)c(F)c3)c(=O)c2c(OC)c1OC [Compound 34]	-11%
CN(C(=O)c1c[nH]c2cc(O)cc(O)c2c1=O)c1cc(O)c(O)c(O)c1 [Compound 42]	114%

From here, focus on the item given below.
Please fill in: inhibition at 20 µM reported for COc1cc(C(=O)Nc2sc3c(c2C(N)=O)CCCC3)cc(OC)c1OC [Compound 12] = -23%
